- target: recombinant human Estrogen Receptor alpha ligand binding domain, residues 307-554 (ER alpha-LBD (GST)) (Homo sapiens, UniProt P03372)
- assay: ERα binding assay (LanthaScreen TR-FRET competition)
- experimentalContext: TR-FRET competition with Fluormone ES2 tracer, 4 hours at room temperature; single experiment or average of two or more
- Description: The ability of compounds to bind to isolated Estrogen Receptor Alpha Ligand binding domain (ER alpha-LBD (GST)) was assessed in competition assays using a LanthaScreen™ Time-Resolved Fluorescence Resonance Energy Transfer (TR-FRET) detection end-point. […]
Assignment: determine reported IC50 for the given compounds.

These solved cases illustrate the format of a correct answer.
givensmiles=Cc1ncsc1-c1ccc([C@H](C)NC(=O)[C@@H]2C[C@@H](O)CN2C(=O)[C@@H](NC(=O)COCCOCCCCOc2cc(F)c([C@@H]3c4[nH]c5ccccc5c4C[C@@H](C)N3CC(C)(C)F)c(F)c2)C(C)(C)C)cc1 reportedproperty=IC50 observedmeasurement="0.3 nM"
givensmiles=Cc1ncsc1-c1ccc(CNC(=O)[C@@H]2C[C@@H](O)CN2C(=O)[C@@H](NC(=O)CNCCCCCOc2cc(F)c([C@@H]3c4[nH]c5ccccc5c4C[C@@H](C)N3CC(C)(C)F)c(F)c2)C(C)(C)C)cc1 reportedproperty=IC50 observedmeasurement="0.7 nM"

Note: attention shifts to another entry.
`Cc1ncsc1-c1ccc(CNC(=O)[C@@H]2C[C@@H](O)CN2C(=O)[C@@H](NC(=O)CCCCCCCOCCOc2cc(F)c([C@@H]3c4[nH]c5ccccc5c4C[C@@H](C)N3CC(C)(C)F)c(F)c2)C(C)(C)C)cc1` yielded IC50 of 0.6 nM

----------
- target: Estrogen Receptor (ERα) in MCF-7 human ductal carcinoma breast cell line (Homo sapiens)
- Construct: endogenous in cells; host or cells: MCF-7
- Sequence (P03372 1-595): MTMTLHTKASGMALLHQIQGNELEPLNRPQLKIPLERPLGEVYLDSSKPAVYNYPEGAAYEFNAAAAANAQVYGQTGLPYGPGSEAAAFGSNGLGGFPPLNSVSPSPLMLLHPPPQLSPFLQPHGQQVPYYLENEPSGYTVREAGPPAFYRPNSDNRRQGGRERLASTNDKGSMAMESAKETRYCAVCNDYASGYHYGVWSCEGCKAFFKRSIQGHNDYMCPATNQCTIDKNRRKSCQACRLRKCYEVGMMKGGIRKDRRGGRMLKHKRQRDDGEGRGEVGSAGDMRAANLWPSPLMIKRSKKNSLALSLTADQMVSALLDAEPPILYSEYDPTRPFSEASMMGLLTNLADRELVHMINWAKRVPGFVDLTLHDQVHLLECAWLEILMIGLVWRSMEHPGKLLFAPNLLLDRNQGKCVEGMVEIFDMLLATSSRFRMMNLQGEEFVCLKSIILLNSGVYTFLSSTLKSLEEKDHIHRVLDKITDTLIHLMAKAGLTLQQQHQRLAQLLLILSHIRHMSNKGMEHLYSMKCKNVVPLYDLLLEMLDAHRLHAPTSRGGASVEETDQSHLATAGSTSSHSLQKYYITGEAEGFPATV
- assay: MCF-7 ER degradation assay (cell based immuno-fluorescence)
- experimentalContext: MCF-7 cells, 18-22 hours incubation, 50% reduction of ERα expression; single experiment or average of two or more; read-out: MCF-7 ER degradation IC50
Label Satisfied when DC50 is strictly below 3 nM; at or above that, label Not satisfied.

Past entries and their recorded results:
compound="Cc1ncsc1-c1ccc(CNC(=O)C2CC(O)CN2C(=O)C(NC(=O)COCCOc2cc(F)c(C3c4[nH]c5ccccc5c4CC(C)N3CC(C)(C)F)c(F)c2)C(C)(C)C)cc1 (stereo not drawn) [Example 40]" class=Satisfied
compound="Cc1ncsc1-c1ccc(CNC(=O)[C@@H]2C[C@@H](O)CN2C(=O)[C@@H](NC(=O)COCCCCCN2CC(Oc3cc(F)c([C@@H]4c5[nH]c6ccccc6c5C[C@@H](C)N4CC(C)(C)F)c(F)c3)C2)C(C)(C)C)cc1 [Example 46]" class=Satisfied
compound="Cc1ncsc1-c1ccc(CNC(=O)[C@@H]2C[C@@H](O)CN2C(=O)[C@@H](NC(=O)COCCCCCOCCCOc2cc(F)c([C@@H]3c4[nH]c5ccccc5c4C[C@@H](C)N3CC(C)(C)F)c(F)c2)C(C)(C)C)cc1 [Example 136]" class=Satisfied
compound="Cc1ncsc1-c1ccc(CNC(=O)[C@@H]2C[C@@H](O)CN2C(=O)[C@@H](NC(=O)COCCCCOCCOc2ccc([C@@H]3c4[nH]c5ccccc5c4C[C@@H](C)N3CC(F)F)nc2)C(C)(C)C)cc1 [Example 24]" class="Not satisfied"
compound="CC(=O)O[C@@H]1C[C@@H](C(=O)NCc2ccc(-c3scnc3C)cc2)N(C(=O)[C@@H](NC(=O)COCCCCCCOc2cc(F)c([C@@H]3c4[nH]c5ccccc5c4C[C@@H](C)N3CC(C)(C)F)c(F)c2)C(C)(C)C)C1 [Example 52]" class=Satisfied
compound="Cc1ncsc1-c1ccc(CNC(=O)[C@@H]2C[C@@H](O)CN2C(=O)[C@@H](NC(=O)COCCOCCCCOc2cc(F)c([C@@H]3c4[nH]c5ccccc5c4C[C@@H](C)N3CC(C)(C)F)c(F)c2)C(C)(C)C)cc1 [Example 128]" class=Satisfied
compound="Cc1ncsc1-c1ccc(CNC(=O)[C@@H]2C[C@@H](O)CN2C(=O)[C@@H](NC(=O)CCCCCCCCOc2cc(F)c([C@@H]3c4[nH]c5ccccc5c4C[C@@H](C)N3CC(C)(C)F)c(F)c2)C(C)(C)C)cc1 [Example 15]" class="Not satisfied"

Read the next record carefully.
Decide: DC50 of Cc1ncsc1-c1ccc(CNC(=O)[C@@H]2C[C@@H](O)CN2C(=O)[C@@H](NC(=O)COCC/C=C/CCOc2ccc([C@@H]3c4[nH]c5ccccc5c4C[C@@H](C)N3CC(F)F)nc2)C(C)(C)C)cc1 [Example 21] strictly below 3 nM?
Not satisfied
